Tested on: AncSZ
Experiment: phosphorylation enrichment, bacterial display (enrichment ratio); higher = better substrate or ligand; peptides without Tyr show the background;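 further: 11-residue human phosphosite peptides and single-mutation variants displayed on the E. coli surface, counted by deep sequencing, each peptide's frequency after selection divided by its frequency in the unselected input library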;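 further: frequency after pTyr selection over input frequency; kinase dosed for 20-30% of maximal phosphorylation in three min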
Measured Metric: phosphorylation enrichment

* GIVEDYRPPVF [ACVRL1_Y421_F425V_YF] | 0.767
* SGLDSYVRSLP [TRAPPC1_Y133_R129G] | 0.618
* WGLRSYYETSK [MAGED2_Y448] | 0.958
* IFRASYVPFAA [RBM47_Y541_G538R_YF] | 0.859
* RRGMPYGGCGD [TGM1_Y312_R315C] | 0.782
* KKHIPYKEHKS [CSNK1G1_Y205_R206K] | 1.53
* LGMSQYFRLFN [CPT2_Y217_D213G] | 0.966
* HFVDEYDLTIE [KRAS_Y32_P34L] | 2.56
* FVHDNYVIWRT [CPS1_Y1450_R1453W] | 1.28
* AGQEDCDRLRP [CDC42_Y64_Y64C] | 0.784
* HEGKIYEYNQV [ZNF665_Y162] | 1.98
* RFLERYIFNRQ [HLA-DPB1_Y57_E62Q_YF] | 1.57
* GFVEDYRPPFY [ACVRL1_Y421_I417F] | 1.33

====

Target: Jak2 (UniProt O60674)
Sequence (O60674 whole entry, looked up): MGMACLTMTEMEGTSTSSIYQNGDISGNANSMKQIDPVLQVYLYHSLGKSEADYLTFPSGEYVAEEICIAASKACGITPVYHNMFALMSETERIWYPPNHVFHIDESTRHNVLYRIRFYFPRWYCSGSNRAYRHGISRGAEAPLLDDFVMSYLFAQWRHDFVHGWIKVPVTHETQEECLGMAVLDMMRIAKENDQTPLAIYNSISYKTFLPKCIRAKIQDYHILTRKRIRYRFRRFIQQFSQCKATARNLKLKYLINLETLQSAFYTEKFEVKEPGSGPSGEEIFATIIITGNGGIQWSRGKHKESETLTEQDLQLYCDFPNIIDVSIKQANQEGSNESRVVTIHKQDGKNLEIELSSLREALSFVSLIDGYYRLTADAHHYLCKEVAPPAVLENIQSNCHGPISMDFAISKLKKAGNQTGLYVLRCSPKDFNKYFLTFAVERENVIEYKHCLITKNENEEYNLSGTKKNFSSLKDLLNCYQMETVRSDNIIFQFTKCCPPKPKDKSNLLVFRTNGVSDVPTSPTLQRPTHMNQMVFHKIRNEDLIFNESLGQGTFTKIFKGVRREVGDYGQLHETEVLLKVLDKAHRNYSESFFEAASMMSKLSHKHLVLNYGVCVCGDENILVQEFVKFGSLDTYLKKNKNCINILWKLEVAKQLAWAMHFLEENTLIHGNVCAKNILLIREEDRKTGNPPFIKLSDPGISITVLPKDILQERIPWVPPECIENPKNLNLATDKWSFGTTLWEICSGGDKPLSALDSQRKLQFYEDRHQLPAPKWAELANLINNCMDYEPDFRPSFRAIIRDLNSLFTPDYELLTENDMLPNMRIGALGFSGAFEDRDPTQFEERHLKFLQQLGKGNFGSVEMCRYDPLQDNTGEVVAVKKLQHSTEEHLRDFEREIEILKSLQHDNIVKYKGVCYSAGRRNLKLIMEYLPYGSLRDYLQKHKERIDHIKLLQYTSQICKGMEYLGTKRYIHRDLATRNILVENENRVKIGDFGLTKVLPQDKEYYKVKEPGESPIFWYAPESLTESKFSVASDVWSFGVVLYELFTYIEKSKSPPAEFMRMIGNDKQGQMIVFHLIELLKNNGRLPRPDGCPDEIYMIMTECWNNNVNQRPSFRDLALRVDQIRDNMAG
Assay: phosphorylation enrichment, bacterial display (enrichment ratio); higher = better substrate or ligand; peptides without Tyr show the background
So basically: phosphorylation enrichment at 0.7 or higher? That is met. Lower than 0.7? That is not met.

* GFDHSYFFIAT [ESD_Y262_YF] | met
* RQGKDYVGAIP [KDR_Y951] | not met
* AFRHGYFDEEM [PLEC_Y2971_R2969H_YF] | met
* ICRWVYPLTPE [EIF2B5_Y319_R315C] | met
* ETKEDYEKILV [ANXA1_Y335_G333E] | met
* IAKNPYDPPGR | not met
* TVDASYFGGRG [ANTXR2_Y380_YF] | not met
* YSTDCYRVGGH [NTRK2_Y707_Y706C] | not met
* LNPLVYTLRNA [OR4C12_Y285_V283L] | met
* SGGLDYGMVGG [TNRC6B_Y1382_M1380L] | not met
* LEHCQYVTEKV [ALDOB_Y204] | met
* MSDVPYVMNRG [ACAT1_Y161_N158D] | not met
* FVTSMYNEILM [TRPV1_Y310] | met

====

Tested on: c-Src
Test: phosphorylation enrichment, bacterial display (enrichment ratio); higher = better substrate or ligand; peptides without Tyr show the background
So basically: phosphorylation enrichment at 0.5 or higher? That is t. Lower than 0.5? That is f.

• DNACQYMLTDR [MYH7_Y164_Y162C] = t
• TRDVNYGWIIR [MT-CYB_Y75] = f
• ARSMEYLAEQK [MST1R_Y1198] = f
• LHQSTYQCYDV [SLC7A14_Y693_R695C] = t
• PFIDSYEKDVA [PGM1_Y521_L516P_YF] = f
• DRLASYPEKVR [KRT13_Y118_L119P] = f
• QRKRAYVEIEF [MAK16_Y282_YF] = t
• EFISESCGEII [EZH2_Y641_Y641S] = t
• PLLEFYWDIFT [CDAN1_Y713_R714W_YF] = f
• GRQGIYTKNER [GPR143_Y231_E233K] = f
